System: Oocyte
Assay: Potentiation of Wistar rat AMPA receptor expressed in Xenopus laevis oocytes assessed as increase in amplitude of (S)-[…] current by two electrode voltage-clamp method relative to AMPA
Assay type: cell-based
Parameters: concentration or dose not given beside the values
Attribute Measured: Activity (%)

Molecule: CC1Nc2ccc(Cl)cc2S(=O)(=O)N1 (configuration not stated)
Inequality Sign: >
Numeric Value: 700

Molecule: CCN1CNS(=O)(=O)c2cc(F)cnc21
Inequality Sign: >
Numeric Value: 422

Molecule: O=S1(=O)N[C@H]2CCCN2c2ccccc21
Inequality Sign: =
Numeric Value: 1260

Molecule: CCN1CNS(=O)(=O)c2cc(Br)ccc21
Inequality Sign: >
Numeric Value: 1100

Molecule: CCN1CNS(=O)(=O)c2cc(C)ccc21
Inequality Sign: >
Numeric Value: 1300

Molecule: CCN1CNS(=O)(=O)c2cc(Cl)cnc21
Inequality Sign: =
Numeric Value: 1090

Molecule: NS(=O)(=O)c1cc2c(cc1Cl)NC(C1CC3C=CC1C3)NS2(=O)=O (configuration not stated)
Inequality Sign: =
Numeric Value: 844

###

Test system: Oocyte
Test: Potentiation of Wistar rat AMPA receptor expressed in Xenopus laevis oocytes assessed as 2-fold increase in amplitude of (S)-AMPA-induced current by two electrode voltage-clamp method
Type: cell-based
Catalogue of EC readings, one per entry.

Smiles String: CCN1CNS(=O)(=O)c2cc(C)ccc21
Result Unit: µM
EC: 25

Smiles String: CN1CNS(=O)(=O)c2cc(Cl)cnc21
Result Unit: µM
EC: 21

Smiles String: CCN1CNS(=O)(=O)c2cc(Br)cnc21
Result Unit: µM
EC: 160

Smiles String: CN1CNS(=O)(=O)c2ncccc21
Result Unit: µM
EC: 21

###

System: Oocyte
Test: Potentiation of Wistar rat AMPA receptor expressed in Xenopus laevis oocytes assessed as 5-fold increase in amplitude of (S)-AMPA-induced current by two electrode voltage-clamp method
Type: cell-based
EC under 100 µM gets y, anything at or over 100 µM gets n.

Smiles String: CCN1CNS(=O)(=O)c2cc(Br)cnc21
Group: n

Smiles String: CCN1CNS(=O)(=O)c2cc(Br)ccc21
Group: y

Smiles String: CCN1CNS(=O)(=O)c2ncc(C)cc21
Group: n

Smiles String: CN1CNS(=O)(=O)c2cccnc21
Group: n

Smiles String: O=S1(=O)N[C@H]2CCCN2c2ccccc21
Group: y

Smiles String: CCN1CNS(=O)(=O)c2cc(F)cnc21
Group: n

Smiles String: CCN1CN(C)S(=O)(=O)c2ncccc21
Group: y

Where these numbers come from: ChEMBL document CHEMBL1140200
